target: human serum albumin (human) (UniProt P02768); experiment: screening ELISA
Sequence (P02768 25-609 limits assumed): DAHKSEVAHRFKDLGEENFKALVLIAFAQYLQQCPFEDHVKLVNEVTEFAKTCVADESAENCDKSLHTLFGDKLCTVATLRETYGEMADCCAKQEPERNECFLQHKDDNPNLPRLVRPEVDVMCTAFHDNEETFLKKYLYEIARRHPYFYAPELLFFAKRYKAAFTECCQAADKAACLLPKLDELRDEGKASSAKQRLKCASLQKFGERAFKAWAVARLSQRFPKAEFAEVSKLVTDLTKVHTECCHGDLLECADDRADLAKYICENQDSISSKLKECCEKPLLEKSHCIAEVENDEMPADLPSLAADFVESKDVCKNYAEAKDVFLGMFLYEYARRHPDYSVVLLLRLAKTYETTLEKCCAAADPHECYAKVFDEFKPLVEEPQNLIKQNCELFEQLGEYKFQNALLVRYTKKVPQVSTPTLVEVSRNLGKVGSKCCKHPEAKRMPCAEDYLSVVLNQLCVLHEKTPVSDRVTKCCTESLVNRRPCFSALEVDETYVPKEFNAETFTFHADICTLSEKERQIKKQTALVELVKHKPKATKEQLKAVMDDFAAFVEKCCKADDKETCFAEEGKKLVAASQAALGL
Documented HSA across a set of binders
quantity.name: HSA

>>> value("SEQ ID NO 220 (designed binder) MLPAPKNLVVSRVTEDSARLSWTAPDAAFDSFHIIYEEDGTEGEAIYLRVPGSERSYDLTGLKPGTEYEVDIEGVKGGVLSWPLFAEFTT")
9400
>>> value("SEQ ID NO 99 (designed binder) MLPAPKNLVVSRVTEDSARLSWTAPDAAFDSFGIQYNEFVFRGEAIVLTVPGSERSYDLTGLKPGTEYFVPISGVKGGDDSRPLSAIFTT")
8150
>>> value("SEQ ID NO 90 (designed binder) MLPAPKNLVVSRVTEDSARLSWTAPDAAFDSFTIHYWEFDPPGEAIVLTVPGSERSYDLTGLKPGTEYTVYIEGVKGGWWSKPLSAIFTT")
2550
>>> value("SEQ ID NO 302 (designed binder) MLPAPKNLVVSRVTEDSARLSWTAPDAAFDSFDIYYPEYYDRGEAIVLTVPGSERSYDLTGLKPGTEYTVYIDGVKGGGGSGPLSAIFTT")
21200
>>> value("SEQ ID NO 276 (designed binder) MLPAPKNLVVSRVTEDSARLSWTAPDAAFDSFRIDYLELTSLGEAIVLTVPGSERSYDLTGLKPGTEYPVPILGVKGGLSSWPLSAIFTT")
12400
>>> value("SEQ ID NO 197 (designed binder) MLPAPKNLVVSRVTEDSARLSWTAPDAAFDSFKIDYLEINDNGEAIVLTVPGSERSYDLTGLKPGTEYPVYIWGVKGGYPSSPLSAIFTT")
18900
>>> value("SEQ ID NO 240 (designed binder) MLPAPKNLVVSRVTEDSARLSWTAPDAAFDSFRIKYLEWWLGGEAIVLTVPGSERSYDLTGLKPGTEYWVDIQGVKGGVLSWPLSAIFTT")
2050
>>> value("SEQ ID NO 198 (designed binder) MLPAPKNLVVSRVTEDSARLSWTAPDAAFDSFLIAYNEDRKFGEAIVLTVPGSERSYDLTGLKPGTEYDVWIEGVKGGSLSFPLSAIFTT")
3050
>>> value("SEQ ID NO 217 (designed binder) MLPAPKNLVVSRVTEDSARLSWTAPDAAFDSFIIEYWEWYFAGEAIVLTVPGSERSYDLTGLKPGTEYTVWITGVKGGTWSEPLSAIFTT")
11800
